Catalogue of MFI fold change to isotype ctrl readings, one per entry.
Molecular target: T1, human CCR8 (human, UniProt P51685 1-355)
T1 construct: also called hCCR8; CC chemokine receptor 8
Experiment: flow cytometry, hCCR8-transfected CHO-K1 cells

{"Binder": "anti-CCR8 mAb 1-2 (antibody, V domains shown, Murine hybridoma mAb) VH: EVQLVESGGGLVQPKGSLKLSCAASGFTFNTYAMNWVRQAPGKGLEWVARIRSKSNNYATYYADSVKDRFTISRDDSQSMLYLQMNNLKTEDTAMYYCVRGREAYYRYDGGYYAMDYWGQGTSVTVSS VL: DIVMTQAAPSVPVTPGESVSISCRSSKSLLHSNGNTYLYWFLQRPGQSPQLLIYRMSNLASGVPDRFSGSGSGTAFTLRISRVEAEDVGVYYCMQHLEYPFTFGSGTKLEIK", "Value observed": "22.7 fold"}

Please list MFI fold change to isotype ctrl recorded for the binder anti-CCR8 mAb 1-7 (antibody, V domains shown, Murine hybridoma mAb) VH: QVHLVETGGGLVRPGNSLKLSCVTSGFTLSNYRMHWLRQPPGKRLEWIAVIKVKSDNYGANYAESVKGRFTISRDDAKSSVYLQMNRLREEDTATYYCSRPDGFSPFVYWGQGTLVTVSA VL: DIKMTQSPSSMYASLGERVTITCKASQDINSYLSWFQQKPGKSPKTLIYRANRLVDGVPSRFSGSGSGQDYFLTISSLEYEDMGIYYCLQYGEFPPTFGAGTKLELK
6.26 fold

The reported measurements were obtained from patent US20260132208A1.
